- subject.of.test: EP2 (Homo sapiens, UniProt P43116)
- Sequence (P43116 whole entry): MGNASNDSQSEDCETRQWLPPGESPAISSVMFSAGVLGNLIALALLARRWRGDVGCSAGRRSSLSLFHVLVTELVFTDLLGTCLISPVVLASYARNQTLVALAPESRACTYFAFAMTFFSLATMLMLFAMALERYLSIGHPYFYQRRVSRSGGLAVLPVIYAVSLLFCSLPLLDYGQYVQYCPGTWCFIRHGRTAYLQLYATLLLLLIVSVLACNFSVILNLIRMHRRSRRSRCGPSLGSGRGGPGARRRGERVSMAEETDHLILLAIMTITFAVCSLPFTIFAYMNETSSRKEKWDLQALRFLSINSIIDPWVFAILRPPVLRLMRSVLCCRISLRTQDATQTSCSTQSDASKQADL
- assay.procedure: EP2 cAMP functional assay
readout: EC50 (nM)
Unit nM implied. Number only.

Query :: Query EC50 for O=C(O)c1ccc(CCCN2C(=O)CC[C@@H]2CC[C@@H](O)Cc2cccc(C(F)(F)F)c2)s1
Result :: 71

Query :: Determine from records and report EC50 for O=C(O)c1ccc(CC2Sc3c(Cl)cccc3N(Cc3ccccc3C(F)(F)F)C2=O)cc1 (stereo not shown)
Result :: 1.9

====

Provide the reported IC50 of each item.
Note: a bare number is incomplete; add the unit.

Query :: Fill: IC50 (UniProtKB P35408) for this compound CC1(C)C(=O)[C@H](C/C=C\CCCC(=O)O)[C@@H](/C=C/[C@H](O)CCc2sc3ccccc3c2Cl)[C@@H]1O [Compound 2]
Sequence (P35408 whole entry): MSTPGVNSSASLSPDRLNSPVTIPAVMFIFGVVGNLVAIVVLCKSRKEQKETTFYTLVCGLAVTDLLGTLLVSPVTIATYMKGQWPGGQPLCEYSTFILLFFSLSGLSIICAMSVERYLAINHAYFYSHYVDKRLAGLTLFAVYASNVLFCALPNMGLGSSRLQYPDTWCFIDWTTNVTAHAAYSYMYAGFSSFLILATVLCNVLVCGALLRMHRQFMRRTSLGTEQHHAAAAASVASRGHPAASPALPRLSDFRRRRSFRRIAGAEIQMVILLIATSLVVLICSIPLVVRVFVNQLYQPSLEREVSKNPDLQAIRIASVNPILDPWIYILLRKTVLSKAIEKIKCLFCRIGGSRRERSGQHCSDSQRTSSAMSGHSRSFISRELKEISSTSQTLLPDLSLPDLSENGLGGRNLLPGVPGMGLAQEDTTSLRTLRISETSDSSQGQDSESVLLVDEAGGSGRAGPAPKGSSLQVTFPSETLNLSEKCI
Result :: 0.007 µM

Query :: Quote IC50 with test system UniProtKB P35408 for O=C(O)CCCCCC[C@H]1C(=S)CCC[C@@H]1CCC(O)Cc1ccccc1 (some centres unmarked) [Compound 1]
Result :: 0.081 µM

====

- subject.of.test: UniProt P35408
- assay.procedure: EP4 cAMP functional assay
readout: EC50 (nM)
Give the value, in units of nM, as a plain number.

Query :: Tell me its EC50 on UniProt P35408: CC1(C)C(=O)[C@H](C/C=C\CCCC(=O)O)[C@@H](/C=C/[C@H](O)CCc2sc3ccccc3c2Cl)[C@@H]1O
Result :: 0.3

Query :: Return reported EC50 for target or system UniProt P35408, item O=C(O)c1ccc(CC2Sc3c(Cl)cccc3N(Cc3ccccc3C(F)(F)F)C2=O)cc1 (stereo not shown) .
Result :: 4

Query :: Under UniProt P35408: report EC50 of O=C(O)CCCCCC[C@H]1C(=S)CCC[C@@H]1CCC(O)Cc1ccccc1 (stereo partly shown) .
Result :: 0.9

====

Would you mind telling me the reported pIC50 of each entry?
# pIC50 = -log10(concentration in molar units)

Query :: Print EP2 (Homo sapiens, UniProt P43116) pIC50 for O=C(O)c1ccc(CC2Sc3c(Cl)cccc3N(Cc3ccccc3C(F)(F)F)C2=O)cc1 (stereo not shown) [Compound 5] .
Result :: 9.00

Query :: Give reported pIC50 for CCCCC[C@H](O)c1ccc(N2C(=O)CC[C@@H]2CCCc2ccc(C(=O)O)s2)cc1 [Compound 3] (EP2 (Homo sapiens, UniProt P43116))
Result :: 7.68

Query :: Report pIC50 under test system EP2 (Homo sapiens, UniProt P43116) for O=C(O)c1ccc(CCCN2C(=O)CC[C@@H]2CC[C@@H](O)Cc2cccc(C(F)(F)F)c2)s1 [Compound 4] .
Result :: 5.33

These data points were gathered from patent US20170143733A1.
